- target-desc: T1, EsCas13d, nuclease-dead (Eubacterium siraeum, UniProt B0MS50, R295A;H300A;R849A;H854A)
- T1 sequence: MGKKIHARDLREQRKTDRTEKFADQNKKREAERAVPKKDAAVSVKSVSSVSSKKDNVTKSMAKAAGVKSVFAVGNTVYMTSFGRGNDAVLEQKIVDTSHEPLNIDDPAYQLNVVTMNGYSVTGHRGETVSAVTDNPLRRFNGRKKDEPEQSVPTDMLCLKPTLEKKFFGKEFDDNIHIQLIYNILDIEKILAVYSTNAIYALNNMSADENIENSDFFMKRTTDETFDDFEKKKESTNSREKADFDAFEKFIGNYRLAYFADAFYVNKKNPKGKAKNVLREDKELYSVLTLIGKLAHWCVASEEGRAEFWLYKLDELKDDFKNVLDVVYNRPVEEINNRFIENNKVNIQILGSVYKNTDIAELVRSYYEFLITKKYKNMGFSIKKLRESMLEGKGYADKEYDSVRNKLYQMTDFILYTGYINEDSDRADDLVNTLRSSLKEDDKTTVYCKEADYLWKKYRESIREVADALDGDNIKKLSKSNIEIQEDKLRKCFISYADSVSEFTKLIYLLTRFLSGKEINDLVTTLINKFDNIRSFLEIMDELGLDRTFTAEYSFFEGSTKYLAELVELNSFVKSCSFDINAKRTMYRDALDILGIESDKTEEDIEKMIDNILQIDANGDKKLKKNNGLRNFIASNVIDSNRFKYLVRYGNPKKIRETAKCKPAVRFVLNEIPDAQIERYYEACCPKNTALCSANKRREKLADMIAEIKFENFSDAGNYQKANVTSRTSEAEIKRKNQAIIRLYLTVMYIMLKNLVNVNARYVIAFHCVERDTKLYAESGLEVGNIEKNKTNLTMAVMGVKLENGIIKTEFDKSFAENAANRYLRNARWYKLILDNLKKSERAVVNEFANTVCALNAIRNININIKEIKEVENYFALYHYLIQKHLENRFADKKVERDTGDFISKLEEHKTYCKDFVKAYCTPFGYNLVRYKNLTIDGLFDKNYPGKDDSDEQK
- assay-comment: crRNA (strand 1, pre-loaded); Mg2+; 40 mM Tris-HCl pH 7.5, 150 mM NaCl, 6 mM MgCl2, 1 mM DTT, 0.1% Tween-20, 0.2 mg/ml BSA; 25 C; 10 min per concentration, then washed
- experimental-parameters: tags: His6-TwinStrep-SUMO cleaved; N-terminal SNAP kept (SNAP-Surface 488); label: 3' end held by stalled T7 RNA polymerase
Binary label based on Kd with cut-off 20 nM: below gives true (1), not below gives false (0).

- binder: "target 1 MT 5'PFS CCA 3'PFS CUA (mixed) RNA 1: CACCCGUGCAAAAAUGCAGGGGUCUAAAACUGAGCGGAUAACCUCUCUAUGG RNA 2: GGGAAUGGAUCCACAUCUACGAAUUCCCACCAUAGAGAGGUUAUCCGCUCACUAAGAUCGGAAGAGCACACGU"
  category: "true (1)"
- binder: "target 1 C6U,U19G (mixed) RNA 1: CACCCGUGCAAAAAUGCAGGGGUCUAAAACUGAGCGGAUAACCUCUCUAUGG RNA 2: GGGAAUGGAUCCACAUCUACGAAUUCGUACCAGAGAGAGGUUAUCUGCUCACCGAGAUCGGAAGAGCACACGU"
  category: "false (0)"
- binder: "target 1 insA 3' of 15,insC 3' of 3 (mixed) RNA 1: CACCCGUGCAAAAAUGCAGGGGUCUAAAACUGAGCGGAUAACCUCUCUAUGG RNA 2: GGGAAUGGAUCCACAUCUACGAAUUCGUACCAUAGAGAAGGUUAUCCGCUCCACCGAGAUCGGAAGAGCACACGU"
  category: "true (1)"
- binder: "target 3 G3A,C6G (mixed) RNA 1: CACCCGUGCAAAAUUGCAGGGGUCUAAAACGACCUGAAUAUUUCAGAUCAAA RNA 2: GGGAAUGGAUCCACAUCUACGAAUUCGUUUUUGAUCUGAAAUAUUGAGAUCUGCAGAUCGGAAGAGCACACGU"
  category: "false (0)"
- binder: "target 2 MT 5'PFS GAA 3'PFS CGC (mixed) RNA 1: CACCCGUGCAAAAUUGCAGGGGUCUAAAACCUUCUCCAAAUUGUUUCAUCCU RNA 2: GGGAAUGGAUCCACAUCUACGAAUUCGAAAGGAUGAAACAAUUUGGAGAAGCGCAGAUCGGAAGAGCACACGU"
  category: "true (1)"
- binder: "target 2 MT 5'PFS CAC 3'PFS UAA (mixed) RNA 1: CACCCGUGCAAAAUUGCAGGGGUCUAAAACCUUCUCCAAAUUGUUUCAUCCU RNA 2: GGGAAUGGAUCCACAUCUACGAAUUCCACAGGAUGAAACAAUUUGGAGAAGUAAAGAUCGGAAGAGCACACGU"
  category: "true (1)"
- binder: "target 3 insG 3' of 1,insG 3' of 1 (mixed) RNA 1: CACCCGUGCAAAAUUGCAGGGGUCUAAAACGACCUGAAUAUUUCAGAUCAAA RNA 2: GGGAAUGGAUCCACAUCUACGAAUUCGUUUUUGAUCUGAAAUAUUCAGGUCGGUGCAGAUCGGAAGAGCACACGU"
  category: "false (0)"
